Target: T1, human Gremlin/GREM1 protein (Acro) (human, UniProt O60565 25-184)
T1 construct: Bought protein (ACRO); also called hGREM1 (ACRO); human GREM1; not shown: his tag
T1 sequence (looked up): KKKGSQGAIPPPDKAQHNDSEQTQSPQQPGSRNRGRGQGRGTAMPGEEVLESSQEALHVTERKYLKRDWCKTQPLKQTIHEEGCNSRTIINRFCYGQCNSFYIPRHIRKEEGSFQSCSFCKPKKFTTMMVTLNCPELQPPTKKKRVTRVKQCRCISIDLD
Test: ELISA, binding to hGremlin-his
Value kind: EC50 (ng/mL)
Your answer should be a plain number; it is taken to be in ng/mL.

Recorded result, Hu14E3_HaLb (antibody, human IgG1, V domains shown, also called humanized 14E3) VH: QVQLVQSGSELKKPGASVKVSCKASGYTFTTYGMAWMRQAPGQGLEWMGWINTLSGEPTYADDFKGRFVFSLDTSVSTAYLQISSLKAEDTAVYYCAREPMDYWGQGTMVTVSS VL: DVVMTQSPLSLPVTLGQPASISCKSSQSLLDSDGKTYLSWLQQRPGQSPRRLISLVSKLDSGVPDRFSGSGSGTDFTLKISRVEAEDVGVYYCWQGAHFPLTFGQGTKLEIK , EC50: 5.6
